Each recorded value in this set is attributed to PubChem BioAssay AID2289.

- PROTOCOL: qHTS Assay for Modulators of miRNAs and/or Inhibitors of miR-21; note: potency is the fitted concentration of half-maximal effect; nearly all actives have a fitted effect of over 55% in size
- EXPERIMENTAL CONTEXT: HeLa miR-21-FLuc reporter, luciferase luminescence, 48 h; actives lower the signal
In all, about 340,000 compounds went through this assay and about 3,300 (0.97%) were called active. Inconclusive results (about 9%) are left out. The list shows a part of the results.
MEASURE: Potency

INSERT INTO results (smiles_notation, measurement) VALUES
  ('CCCc1nnc(NC(=O)Nc2ccccc2OC)s1', '16.5 µM (active)');

Looking for the measured Potency of CC(C)c1ccc(NC(=O)C2=NNC(=O)CC2)cc1 , can you help?
2.33 µM (active)

Given COC(=O)c1cc2c(ccn2-c2ccc(F)cc2)n1Cc1ccc(OC(C)=O)cc1 , state its recorded Potency.
18.5 µM (active)

Entry O=C(COc1ccccc1)Nc1ccc(Cl)cc1Cl : reported Potency = ?
5.85 µM (active)

What value of measured Potency is listed for O=C(Nc1cccc(O)c1)c1c(O)c2ccccc2[nH]c1=O ?
1.47 µM (active)

Record request: Potency value, item CC(C)(C)C(=O)Nc1nnc(CCc2ccccc2)s1
2.93 µM (active)

Need Potency, item C=CCn1c(=O)c(C(=O)Nc2ccccc2S(N)(=O)=O)c(O)c2ccccc21
4.65 µM (active)

Which Potency reading was recorded for the compound COc1ccc(C(=O)COc2ccccc2C#N)cc1 ?
4.65 µM (active)

Can you look up the measured Potency of O=C(CCc1ccccc1)Nc1cc2c(cc1Cl)OCCO2 for me?
2.61 µM (active)

Entry Fc1ccc2nc(N3CCCC3)sc2c1 has what Potency?
4.14 µM (active)

Potency for NS(=O)(=O)c1ccccc1NC(=O)c1c(O)c2ccccc2[nH]c1=O ?
0.736 µM (active)

Entry COc1ccccc1NC(=O)Nc1nnc(C(C)C)s1 has what Potency?
14.7 µM (active)
